Form field: MIC (one value per entry).
tested on: Escherichia coli; assay: Antibacterial activity against Escherichia coli ATCC 25922 assessed as bacterial growth inhibition incubated for 20 hrs by broth microdilution method; type: functional
Positions of bridges follow the written chain, without caps; N, C: chain ends. Non-standard residues stand in square brackets, D forms with d. Residues, ends and D or L forms follow the SMILES beside them. *: point of attachment. dPhe(2-F) = N[C@H](Cc1ccccc1F)C(=O)O; Gly(octyl) = CCCCCCCC[C@H](N)C(=O)O; d(hLeu) = CC(C)CC[C@@H](N)C(=O)O; Octanoyl = CCCCCCCC(=O)*; Dab = NCC[C@H](N)C(=O)O

molecule | assayedTarget | units | valueQualifier | MIC
CCCCCCCC(=O)N[C@@H](CCN)C(=O)N[C@H](C(=O)N[C@@H](CCN)C(=O)N[C@H]1CCNC(=O)[C@H]([C@@H](C)O)NC(=O)[C@H](CCN)NC(=O)[C@H](CCN)NC(=O)[C@H](Cc2ccccc2)NC(=O)[C@@H](CCC(C)C)NC(=O)[C@H](CCN)NC1=O)[C@@H](C)O (Octanoyl-[Dab]T[Dab][Dab][Dab][d(hLeu)]F[Dab][Dab]T; lactam 4-C) | Escherichia coli | µg/mL | < | 0.125
CCCCCCCC(=O)N[C@@H](CCN)C(=O)N[C@H](C(=O)N[C@@H](CCN)C(=O)N[C@H]1CCNC(=O)[C@H]([C@@H](C)O)NC(=O)[C@H](CCN)NC(=O)[C@H](CCN)NC(=O)[C@H](CC(C)C)NC(=O)[C@@H](Cc2ccccc2F)NC(=O)[C@H](CCN)NC1=O)[C@@H](C)O (Octanoyl-[Dab]T[Dab][Dab][Dab][dPhe(2-F)]L[Dab][Dab]T; lactam 4-C) | Escherichia coli | µg/mL | = | 0.123
CCCCCCCC[C@@H]1NC(=O)[C@@H](Cc2ccccc2)NC(=O)[C@H](CCN)NC(=O)[C@@H](NC(=O)[C@H](CCN)NC(=O)[C@@H](NC(=O)[C@H](CCN)NC(=O)CCCCCCC)[C@@H](C)O)CCNC(=O)[C@H]([C@@H](C)O)NC(=O)[C@H](CCN)NC(=O)[C@H](CCN)NC1=O (Octanoyl-[Dab]T[Dab][Dab][Dab][dF][Gly(octyl)][Dab][Dab]T; lactam 4-C) | Escherichia coli | µg/mL | = | 0.5
CC(=O)N[C@H](Cc1ccc(Br)cc1)C(=O)N[C@@H](CCN)C(=O)N[C@H](C(=O)N[C@@H](CCN)C(=O)N[C@H]1CCNC(=O)[C@H]([C@@H](C)O)NC(=O)[C@H](CCN)NC(=O)[C@H](CCN)NC(=O)[C@H](CC(C)C)NC(=O)[C@@H](Cc2ccccc2)NC(=O)[C@@H](CCN)NC1=O)[C@H](C)O | Escherichia coli | µg/mL | = | 0.06

* * *

Recorded hemolysis at 1 h, 400 ug/ml, one value per entry.
assay: Hemolytic activity in human RBC at 400 ug/ml after 1 hr; format: toxicity, cell-based, Erythrocyte; settings: red blood cells (erythrocytes), at 400 µg/mL, read-out: Activity
Positions of bridges follow the written chain, without caps; N, C: chain ends. Non-standard residues stand in square brackets, D forms with d. Residues, ends and D or L forms follow the SMILES beside them. *: point of attachment. dPhe(4-Cl) = N[C@H](Cc1ccc(Cl)cc1)C(=O)O; d(hPhe) = N[C@H](CCc1ccccc1)C(=O)O; d(hLeu) = CC(C)CC[C@@H](N)C(=O)O; Octanoyl = CCCCCCCC(=O)*; Dab = NCC[C@H](N)C(=O)O
quantityKind: hemolysis at 1 h, 400 ug/ml

compound | quantityKind | result
CCCCCCCC(=O)N[C@@H](CCN)C(=O)N[C@H](C(=O)N[C@@H](CCN)C(=O)N[C@H]1CCNC(=O)[C@H]([C@@H](C)O)NC(=O)[C@H](CCN)NC(=O)[C@H](CCN)NC(=O)[C@H](Cc2ccccc2)NC(=O)[C@@H](CCC(C)C)NC(=O)[C@H](CCN)NC1=O)[C@@H](C)O (Octanoyl-[Dab]T[Dab][Dab][Dab][d(hLeu)]F[Dab][Dab]T; lactam 4-C) | hemolysis at 1 h, 400 ug/ml | < 10%
CCCCCCCC(=O)N[C@@H](CCN)C(=O)N[C@H](C(=O)N[C@@H](CCN)C(=O)N[C@H]1CCNC(=O)[C@H]([C@@H](C)O)NC(=O)[C@H](CCN)NC(=O)[C@H](CCN)NC(=O)[C@H](CC(C)C)NC(=O)[C@@H](CCc2ccccc2)NC(=O)[C@H](CCN)NC1=O)[C@@H](C)O (Octanoyl-[Dab]T[Dab][Dab][Dab][d(hPhe)]L[Dab][Dab]T; lactam 4-C) | hemolysis at 1 h, 400 ug/ml | < 10%
CCCCCCCC(=O)N[C@@H](CCN)C(=O)N[C@H](C(=O)N[C@@H](CCN)C(=O)N[C@H]1CCNC(=O)[C@H]([C@@H](C)O)NC(=O)[C@H](CCN)NC(=O)[C@H](CCN)NC(=O)[C@H](CC(C)C)NC(=O)[C@@H](Cc2ccc(Cl)cc2)NC(=O)[C@H](CCN)NC1=O)[C@@H](C)O (Octanoyl-[Dab]T[Dab][Dab][Dab][dPhe(4-Cl)]L[Dab][Dab]T; lactam 4-C) | hemolysis at 1 h, 400 ug/ml | < 10%

* * *

Quick list: MIC per entry.
test system: Escherichia coli; test: Antibacterial activity against Escherichia coli ATCC 25922 assessed as bacterial growth inhibition incubated for 20 hrs by broth microdilution method; assay type: functional
Positions of bridges follow the written chain, without caps; N, C: chain ends. Non-standard residues stand in square brackets, D forms with d. Residues, ends and D or L forms follow the SMILES beside them. *: point of attachment. dPhe(3,4,5-F3) = N[C@H](Cc1cc(F)c(F)c(F)c1)C(=O)O; hhPhe = N[C@@H](CCCc1ccccc1)C(=O)O; Octanoyl = CCCCCCCC(=O)*; Dab = NCC[C@H](N)C(=O)O

molecule | units | valueQualifier | MIC
CCCCCCCC(=O)N[C@@H](CCN)C(=O)N[C@H](C(=O)N[C@@H](CCN)C(=O)N[C@H]1CCNC(=O)[C@H]([C@@H](C)O)NC(=O)[C@H](CCN)NC(=O)[C@H](CCN)NC(=O)[C@H](CCCc2ccccc2)NC(=O)[C@@H](CC(C)C)NC(=O)[C@H](CCN)NC1=O)[C@@H](C)O (Octanoyl-[Dab]T[Dab][Dab][Dab][dL][hhPhe][Dab][Dab]T; lactam 4-C) | µg/mL | = | 0.5
CCCCCCCC(=O)N[C@@H](CCN)C(=O)N[C@H](C(=O)N[C@@H](CCN)C(=O)N[C@H]1CCNC(=O)[C@H]([C@@H](C)O)NC(=O)[C@H](CCN)NC(=O)[C@H](CCN)NC(=O)[C@H](CC(C)C)NC(=O)[C@@H](Cc2cc(F)c(F)c(F)c2)NC(=O)[C@H](CCN)NC1=O)[C@@H](C)O (Octanoyl-[Dab]T[Dab][Dab][Dab][dPhe(3,4,5-F3)]L[Dab][Dab]T; lactam 4-C) | µg/mL | < | 0.125

* * *

test system: Escherichia coli; experiment: Antibacterial activity against Escherichia coli ATCC 25922 assessed as bacterial growth inhibition incubated for 20 hrs by broth microdilution method; assay type: functional
Positions of bridges follow the written chain, without caps; N, C: chain ends. Non-standard residues stand in square brackets, D forms with d. Residues, ends and D or L forms follow the SMILES beside them. *: point of attachment. dPhe(F5) = N[C@H](Cc1c(F)c(F)c(F)c(F)c1F)C(=O)O; Octanoyl = CCCCCCCC(=O)*; Dab = NCC[C@H](N)C(=O)O
quantityKind: MIC

compound | quantityKind | result
CCCCCCCC(=O)N[C@@H](CCN)C(=O)N[C@H](C(=O)N[C@@H](CCN)C(=O)N[C@H]1CCNC(=O)[C@H]([C@@H](C)O)NC(=O)[C@H](CCN)NC(=O)[C@H](CCN)NC(=O)[C@H](CC(C)C)NC(=O)[C@@H](Cc2c(F)c(F)c(F)c(F)c2F)NC(=O)[C@H](CCN)NC1=O)[C@@H](C)O (Octanoyl-[Dab]T[Dab][Dab][Dab][dPhe(F5)]L[Dab][Dab]T; lactam 4-C) | MIC | < 0.125 µg/mL

* * *

assay: Hemolytic activity in human RBC at 400 ug/ml after 1 hr; assay type: toxicity, cell-based, Erythrocyte; conditions: red blood cells (erythrocytes), at 400 µg/mL, read-out: Activity
Positions of bridges follow the written chain, without caps; N, C: chain ends. Non-standard residues stand in square brackets, D forms with d. Residues, ends and D or L forms follow the SMILES beside them. *: point of attachment. dAoc(2) = CCCCCC[C@@H](N)C(=O)O; hLeu = CC(C)CC[C@H](N)C(=O)O; Octanoyl = CCCCCCCC(=O)*; Dab = NCC[C@H](N)C(=O)O
quantityKind: hemolysis at 1 h, 400 ug/ml

molecule | result
CC(=O)N[C@H](Cc1ccccc1F)C(=O)N[C@@H](CCN)C(=O)N[C@H](C(=O)N[C@@H](CCN)C(=O)N[C@H]1CCNC(=O)[C@H]([C@@H](C)O)NC(=O)[C@H](CCN)NC(=O)[C@H](CCN)NC(=O)[C@H](CC(C)C)NC(=O)[C@@H](Cc2ccccc2)NC(=O)[C@@H](CCN)NC1=O)[C@H](C)O | < 10%
CCCCCCCC(=O)N[C@@H](CCN)C(=O)N[C@H](C(=O)N[C@@H](CCN)C(=O)N[C@H]1CCNC(=O)[C@H]([C@@H](C)O)NC(=O)[C@H](CCN)NC(=O)[C@H](CCN)NC(=O)[C@H](CCC(C)C)NC(=O)[C@@H](Cc2ccccc2)NC(=O)[C@H](CCN)NC1=O)[C@@H](C)O (Octanoyl-[Dab]T[Dab][Dab][Dab][dF][hLeu][Dab][Dab]T; lactam 4-C) | < 10%
CCCCCCCC(=O)N[C@@H](CCN)C(=O)N[C@H](C(=O)N[C@@H](CCN)C(=O)N[C@H]1CCNC(=O)[C@H]([C@@H](C)O)NC(=O)[C@H](CCN)NC(=O)[C@H](CCN)NC(=O)[C@H](Cc2ccccc2)NC(=O)[C@@H](CCCCCC)NC(=O)[C@H](CCN)NC1=O)[C@@H](C)O (Octanoyl-[Dab]T[Dab][Dab][Dab][dAoc(2)]F[Dab][Dab]T; lactam 4-C) | < 10%
